All figures here come from patent US20100068198A1.

Study system: α3β1 Na+/K+-ATPase (Rattus norvegicus, UniProt P06687)
Assay overview: Na+,K+-ATPase activity assay on homogenates of Sf-9 cells expressing α3β1 isozyme (32Pi release from ATP)
Reported endpoint: pKi
# log scale: pKi equals minus log10 of the concentration in mol/L

Consider the compound C[C@@H]1CC2(NC(=O)CS2)[C@]2(O)O[C@@H]3C[C@]4(CO)C5CC[C@]6(C)[C@@H](C7=CC(=O)OC7)CC[C@]6(O)[C@@H]5CC[C@H]4C[C@H]3O[C@@H]2O1 (stereo partly shown) and give its measured pKi. 8.49
